# Test system: KM12 colon
# measurement.protocol: NCI tumour cell line growth inhibition, 48 h; in the data active = GI50 below about 0.43 µM; inactive = the rest
Outcomes: Yes for active, No for inactive

molecule	label.class
O=C(NCCCCN1CCOCC1)c1cc2ccccc2o1	No
CCCCCCCCCCCCCCCC1=NCC[N+]1(CCO)CCO	No
O=C(CN(/C=C/C(=O)C(F)(F)F)c1ccc(Cl)cc1)c1ccc(Cl)cc1	No
COc1c/c(=C2\C=c3ccccc3=N2)[nH]/c1=C\c1[nH]c(C)cc1C	Yes
CNC(=O)c1c(C)oc2cc(Oc3ncnc4cc(OC)c(OC)cc34)ccc12	No
NS(=O)(=O)OC[C@H]1C[C@@H](Nc2ccnc3cc(-c4cccc(SC(F)(F)F)c4)nn23)[C@H](O)[C@@H]1O	Yes
COc1cc2c(cc1OC(C)C)[C@H](c1ccc(Cl)cc1)N(c1ccc(N(C)CC3CCC(N4CCN(C)C(=O)C4)CC3)cc1)C(=O)C2 (stereo partly drawn)	No
COc1ccccc1Nc1cc(O)c2c(=O)cc(-c3ccccc3)oc2c1	No

---

# Test system: NCI-H522 lung
# measurement.protocol: NCI tumour cell line growth inhibition, 48 h
Catalogue of TGI values

structure.smiles.string	TGI
O=C(NCCCCN1CCOCC1)c1cc2ccccc2o1	> 100 µM
O=C1Nc2c(ccc(Cl)c2Cl)/C1=C/c1cc(Br)c(O)c(Br)c1	> 28.6 µM
C=CCN(c1cc(OC)c(NC(C)=O)cc1[N+](=O)[O-])S(C)(=O)=O	12.5 µM
Cc1cc(S(=O)(=O)NC2=NCc3nc4ccccc4n32)c(S)cc1Cl	> 100 µM
CNC(=O)OCc1nc(SC)n(C)c1CO	> 100 µM
CC(C)[N+]([O-])(CCCNc1c2ccccc2nc2cccc([N+](=O)[O-])c12)C(C)C	0.147 µM

---

# System: NCI-H23 lung
# measurement.protocol: NCI tumour cell line growth inhibition, 48 h
Catalogue of TGI values
quantity.measured: TGI

compound	target.or.system	result
CSc1ccc2c(cc1=O)[C@@H](NC(=O)c1cccc([N+](=O)[O-])c1)CCc1cc(O)c(O)c(O)c1-2	NCI-H23 lung	> 100 µM
Clc1c(Cl)[n+](Cc2ccc3ccccc3c2)cn1Cc1ccc2ccccc2c1	NCI-H23 lung	3.15 µM
O=C1NC2c3c(I)sc(I)c3C(=O)C2O1 (stereo not given)	NCI-H23 lung	16.6 µM
N#Cc1ccc(C(O)C(F)(F)c2nc3ccccc3o2)cc1 (stereo not given)	NCI-H23 lung	> 100 µM
O=C(O)c1ccccc1C(=O)NCC1S(=O)(=O)OCCOS1(=O)=O	NCI-H23 lung	> 100 µM
N#CC(c1ccccc1)N(CCCCCCN(C(=O)c1ccccc1)C(C#N)c1ccccc1)C(=O)c1ccccc1 (stereo not given)	NCI-H23 lung	73.8 µM
CNC(=O)c1c(C)oc2cc(Oc3ncnc4cc(OC)c(OC)cc34)ccc12	NCI-H23 lung	> 100 µM
COc1ccc(Cc2c3cc(O)c(=O)cc-3ccn2C)cc1	NCI-H23 lung	> 100 µM
C[C@H](C1CC(C)(O)C(C)(O)C(O)O1)[C@H]1CC[C@H]2[C@@H]3[C@@H]4O[C@@H]4[C@@]4(O)CC=CC(=O)[C@]4(C)[C@H]3CC[C@]12C (stereo not given in full)	NCI-H23 lung	> 50 µM
CC1Cc2c(Cl)ncnc2N(C)c2ccc(Cl)cc21 (stereo not given)	NCI-H23 lung	2.2 µM
